- TARGET_SYSTEM: Histamine H1 receptor (Homo sapiens); also: assay procedure not described here
- Sequence (P35367 whole entry): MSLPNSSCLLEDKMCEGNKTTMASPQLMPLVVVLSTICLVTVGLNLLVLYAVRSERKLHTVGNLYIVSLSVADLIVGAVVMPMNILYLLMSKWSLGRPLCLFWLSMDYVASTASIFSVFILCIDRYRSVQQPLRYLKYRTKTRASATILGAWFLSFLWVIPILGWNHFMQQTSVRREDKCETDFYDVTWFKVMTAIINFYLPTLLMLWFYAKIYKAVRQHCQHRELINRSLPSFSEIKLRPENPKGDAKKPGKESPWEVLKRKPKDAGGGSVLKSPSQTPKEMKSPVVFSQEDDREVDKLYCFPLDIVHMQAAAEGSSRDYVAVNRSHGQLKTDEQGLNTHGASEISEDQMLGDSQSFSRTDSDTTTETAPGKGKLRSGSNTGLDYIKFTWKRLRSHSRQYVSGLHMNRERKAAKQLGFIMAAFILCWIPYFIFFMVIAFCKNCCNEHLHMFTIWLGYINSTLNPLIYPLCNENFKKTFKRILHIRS
The reader will find reported AC50 values listed item by item below.

COMPOUND: CCCCOC(=O)C(=O)Nc1cccc(-c2nnn[nH]2)c1 [TAZANOLAST]
AC50: > 30 µM
--
COMPOUND: CCCCC[C@H](O)CC[C@@H]1[C@H]2Cc3cccc(OCC(=O)O)c3C[C@H]2C[C@H]1O [TREPROSTINIL]
AC50: > 30 µM
--
COMPOUND: CCC(NC(C)C)C(O)c1ccc(O)c(O)c1 (stereo not given) [ISOETHARINE]
AC50: > 30 µM
--
COMPOUND: Oc1cc(O)c2c(c1)O[C@H](c1ccc(O)c(O)c1)[C@@H](O)C2 [CIANIDANOL]
AC50: > 10 µM
--
COMPOUND: CN(C)[C@@H]1C(O)=C(C(=O)NCN2CCCC2)C(=O)[C@@]2(O)C(O)=C3C(=O)c4c(O)cccc4[C@@](C)(O)[C@H]3C[C@@H]12 [ROLITETRACYCLINE]
AC50: > 10 µM

----------
Some compounds, each annotated with its measured AC50.
- TARGET_SYSTEM: Amine oxidase [flavin-containing] A (Homo sapiens, UniProt P21397); also: assay procedure not described here
- Sequence (P21397 whole entry): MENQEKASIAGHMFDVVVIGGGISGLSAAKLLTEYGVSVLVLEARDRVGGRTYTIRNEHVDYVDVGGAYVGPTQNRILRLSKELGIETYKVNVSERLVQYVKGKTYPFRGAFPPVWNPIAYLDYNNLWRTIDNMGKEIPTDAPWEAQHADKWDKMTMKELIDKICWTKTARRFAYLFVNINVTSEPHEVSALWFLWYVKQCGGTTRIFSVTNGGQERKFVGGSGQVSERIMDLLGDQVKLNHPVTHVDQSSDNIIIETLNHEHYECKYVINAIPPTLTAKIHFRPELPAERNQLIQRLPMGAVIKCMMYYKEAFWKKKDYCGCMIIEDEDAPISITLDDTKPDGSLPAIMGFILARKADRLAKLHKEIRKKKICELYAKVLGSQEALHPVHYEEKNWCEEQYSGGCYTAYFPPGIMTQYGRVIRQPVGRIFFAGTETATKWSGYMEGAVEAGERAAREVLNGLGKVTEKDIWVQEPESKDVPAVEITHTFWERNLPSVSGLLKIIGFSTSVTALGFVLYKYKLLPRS
- Format: functional
ATTRIBUTE_MEASURED: AC50

COMPOUND: COC(=O)[C@H]1[C@H]2C[C@@H]3c4[nH]c5ccccc5c4CCN3C[C@H]2C[C@@H](OC(=O)c2cc(OC)c(OC)c(OC)c2)[C@@H]1OC [DESERPIDINE]
ATTRIBUTE_MEASURED: AC50
READOUT_VALUE: > 10 µM

COMPOUND: CN(C)CCOC(c1ccc(Cl)cc1)c1ccccn1 (stereo not drawn) [CARBINOXAMINE]
ATTRIBUTE_MEASURED: AC50
READOUT_VALUE: > 30 µM

COMPOUND: OCC(CO)N[C@H]1C[C@](O)(CO)[C@@H](O)[C@H](O)[C@H]1O [VOGLIBOSE]
ATTRIBUTE_MEASURED: AC50
READOUT_VALUE: > 30 µM

COMPOUND: Oc1cc(O)c2c(c1)O[C@H](c1ccc(O)c(O)c1)[C@@H](O)C2 [CIANIDANOL]
ATTRIBUTE_MEASURED: AC50
READOUT_VALUE: > 10 µM

COMPOUND: CN(C)CCC=C1c2ccccc2CCc2ccccc21 [AMITRIPTYLINE]
ATTRIBUTE_MEASURED: AC50
READOUT_VALUE: > 10 µM

COMPOUND: C[C@H](CCC(=O)O)[C@H]1CC[C@H]2[C@@H]3[C@H](O)C[C@@H]4C[C@H](O)CC[C@]4(C)[C@H]3CC[C@]12C [CHENODIOL]
ATTRIBUTE_MEASURED: AC50
READOUT_VALUE: > 30 µM

COMPOUND: CN(C)CCCC1(c2ccc(F)cc2)OCc2cc(C#N)ccc21 (stereo not drawn) [CITALOPRAM]
ATTRIBUTE_MEASURED: AC50
READOUT_VALUE: > 10 µM

COMPOUND: CCCCC[C@H](O)CC[C@@H]1[C@H]2Cc3cccc(OCC(=O)O)c3C[C@H]2C[C@H]1O [TREPROSTINIL]
ATTRIBUTE_MEASURED: AC50
READOUT_VALUE: > 30 µM
